The measurements presented in this section are drawn from PubChem BioAssay.

Assay Comment: cytotoxicity in PPC-1 cells, confirmation, cytotoxicity control for TRAIL apoptosis potentiator project, cell-based, ATP content luminescence (AID 1447);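 also: 0% = DMSO-treated cells and 100% = wells holding medium but no cells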
Cond: PPC-1 viability, ATPlite luminescence, overnight; at 5 µM; stronger effect = higher value
The other results are listed elsewhere or left out.
Property: cytotoxicity; scope: individual compounds
Report the figure in % without appending any unit label.

[
  {
    "Structure Notation": "Cc1cc(C)nc(Nc2n[nH]c(-c3ccccc3N)n2)n1",
    "cytotoxicity / %": 37.6
  },
  {
    "Structure Notation": "Cn1c(=O)n(C)c2cc(S(=O)(=O)N3CCCc4ccccc43)ccc21",
    "cytotoxicity / %": 14.1
  },
  {
    "Structure Notation": "Clc1cccc(-c2nc3nc4ccccc4nc3n2Cc2ccco2)c1",
    "cytotoxicity / %": -6
  },
  {
    "Structure Notation": "Cc1ccc(-c2nc3ccccc3[nH]2)cc1N",
    "cytotoxicity / %": 49.3
  }
]

Provide measured cytotoxicity value, entry: "CS(=O)(=O)N(CC(=O)N1CCOCC1)c1ccc2c3c(cccc13)CC2"
-7.5
